ASSAY_SUMMARY: recombinant UMI read abundance after kanamycin selection (control-corrected) (log10(CPM+1)); higher = more efficient recombination; extreme values may be limits of the assay; sequences stand for … in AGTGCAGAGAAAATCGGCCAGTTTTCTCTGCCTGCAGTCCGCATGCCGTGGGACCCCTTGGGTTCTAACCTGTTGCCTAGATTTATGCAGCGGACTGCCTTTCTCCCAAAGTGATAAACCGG…AGGTTGGTTTCACT; site = the 11-nt donor;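 note: IS621 bridge recombinase in Escherichia coli cells against a fixed T5 target plasmid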
OUTCOME_MEASURE: recombinant UMI read abundance (log10)
No unit in the answer, only the number.

// known answers, use as guide
CHAIN_SEQUENCE | recombinant UMI read abundance (log10)
CACTCGTCATGGACCGGTTTTCCCGGTAATCCGTATTTGCC (site CACTCATCTGG) | 2.88
ACACACCCATGGACCGGTTTTCCCGGTAATCCGTATTTGAC (site ACACATCCTGT) | 0.471
TGACTGCCATGGACCGGTTTTCCCGGTAATCCGTATTTGAA (site TGACTGCCTTT) | 0.0135
CCCCACACATGGACCGGTTTTCCCGGTAATCCGTATTTGTC (site CCCCACACTGA) | 2.39
CTACAAACATGGACCGGTTTTCCCGGTAATCCGTATTTGGA (site CTACGAACTTC) | 0.0102
TGATCGACATGGACCGGTTTTCCCGGTAATCCGTATTTGTT (site GGATCGACTAA) | 0.0286

Request: Dear colleague, I am looking for the recorded recombinant UMI read abundance (log10) of the following sequence: TTTATTACATGGACCGGTTTTCCCGGTAATCCGTATTTGGT (site TTTATTACTAC)
Result: 0.0132

Request: # get_value(readout='recombinant UMI read abundance (log10)', item= CGATCAGCATGGACCGGTTTTCCCGGTAATCCGTATTTGCT (site CGATCATCTAG) )
Result: 0

Request: Which value of recombinant UMI read abundance (log10) has been reported for CGGCAGTCATGGACCGGTTTTCCCGGTAATCCGTATTTGCC (site CGGTAGTCTGG) in the records?
Result: 0
